Origin of measurements: patent US6686353B1

molecular target: MCP-1 receptor (Homo sapiens)
Sequence (P41597 1-360 isoform P41597-2): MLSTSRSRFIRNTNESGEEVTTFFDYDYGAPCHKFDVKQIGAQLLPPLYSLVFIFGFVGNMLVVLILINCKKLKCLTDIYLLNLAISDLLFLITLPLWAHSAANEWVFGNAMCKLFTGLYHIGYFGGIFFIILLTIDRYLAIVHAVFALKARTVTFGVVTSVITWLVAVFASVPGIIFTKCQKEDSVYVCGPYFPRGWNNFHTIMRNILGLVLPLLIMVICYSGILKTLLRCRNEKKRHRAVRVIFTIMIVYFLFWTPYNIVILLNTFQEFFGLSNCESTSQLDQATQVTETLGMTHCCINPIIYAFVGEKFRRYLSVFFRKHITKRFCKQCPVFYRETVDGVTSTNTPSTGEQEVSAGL
Reported metric: pIC50
Entry type: numeric. Quantity: pIC50, the -log10 of concentration in molar units.

Query string: Provide pIC50, tested on MCP-1 receptor (Homo sapiens), for CS(=O)(=O)c1ccc(CN2CCCN(CCC(c3ccccc3)c3ccccc3)CC2)cc1 .
Result string: 4.77
